Hello, the source for this data is patent US10307413B2, in case you need it.

# Test system: Z-138 cell line
# Method: Z-138 Proliferation Assay (Cell Titer Glo, 5 days)
# Format: cell-based
# Reported Conditions: Homo sapiens, 120 h; Z-138 cells, 5 days, Cell Titer Glo; read-out: Proliferation EC50
pEC50: −log10 of the molar value.
Listing of entries alongside the reported pEC50.

CN(C)[C@H]1CC[C@@H](Nc2cc(C(=O)NC[C@H](O)CN3CCc4ccccc4C3)ncn2)CC1 | 5.00 to 6.00

Query CC(=O)N1CCC(Nc2cc(C(=O)NC[C@H](O)CN3CCc4ccccc4C3)nc(N3CCN(C(C)=O)CC3)c2)CC1 yields pEC50 of 6.00 to 7.00

Query CC(=O)N1CCC(Nc2cc(C(=O)NC[C@H](O)CN3CCc4ccccc4C3)nc(N3CCOCC3)c2)CC1 yields pEC50 of 6.00 to 7.00

Query CC(C)CC(=O)N1CCC(Nc2cc(C(=O)NC[C@H](O)CN3CCc4ccccc4C3)ccn2)CC1 yields pEC50 of > 7.00
